- System: UACC-257 melanoma
- assay_protocol: NCI-60 one-dose screen, 48 h (100 = growth as untreated, 0 = no growth, -100 = all killed)
- cond: 10 µM unless noted
About 83,000 compounds went through this panel and 20% of them were active in at least one assay; those are over-represented in the sample as a whole.
measured_attribute: growth (%)
The answer is to be given in %; state only the numeric part.

For the molecule CN1CCN(Cc2ccc(NC(=O)c3cncc(C#Cc4cnc5ccc(OCC6(C)COC6)nn45)c3)cc2C(F)(F)F)CC1 , what growth is on record?
-70.6

For the molecule O=S(=O)(NCCNc1nccc(-n2cnc3ccccc32)n1)c1ccc(Cl)cc1 , what growth is on record?
103

For the molecule O=C1CCC(N2C(=O)c3ccc(NS(=O)(=O)c4ccccc4OC(F)(F)F)cc3C2=O)C(=O)N1 (centres undefined) , what growth is on record?
107

For the molecule C#Cc1ccc(C(=O)NCc2ccc(/C=C/C(=O)c3nccn3C)cc2)cc1 , what growth is on record?
67.7

For the molecule NS(=O)(=O)c1ccc(-n2cc(CN3CCNCC3)nn2)cc1 , what growth is on record?
111

For the molecule O=C(Nc1cccc(C(F)(F)F)c1)c1cc(-c2ccc(F)cc2F)ccc1O , what growth is on record?
-8.74

For the molecule Cc1cc(C)n(C(=O)c2sc(=S)n(-c3ccccc3)c2N=Nc2c(N)n[nH]c2N)n1 , what growth is on record?
106

For the molecule C[C@H]1c2[nH]c3ccccc3c2C[C@H]2C(=O)N(CCCCCCC(=O)NO)CC(=O)N21 , what growth is on record?
63

For the molecule NS(=O)(=O)c1ccc(Nc2nc(N/N=C/c3c[nH]c4ccccc34)nc(Nc3ccccc3)n2)cc1 , what growth is on record?
63.1
